Here, each record is paired with measured logD data.
procedure text: Partition coefficient determined using standard shake flask method at pH 7.4.
Assay type: physicochemical
test context: octanol/water

{"columns": ["compound", "logD"],
 "data": [
  ["C=C1c2ccccc2C2(NC)CCCCC12 (configuration not stated)", 0.76],
  ["CN[C@@]12CC[C@@H](CN)C[C@@H]1Cc1ccccc12", -1.42],
  ["CNC12CCCCC1Cc1cc(OC)ccc12 (configuration not stated)", 0.21],
  ["NC12CCC(CO)CC1Cc1ccccc12 (configuration not stated)", 0.86],
  ["CNC12CCCCC1Cc1ccc(OC)cc12 (configuration not stated)", 0.65],
  ["CNC[C@@H]1CC[C@@]2(NC)c3ccccc3C[C@H]2C1", -2.65],
  ["CNC12CC=CCC1c1ccccc1C2 (configuration not stated)", 0.04],
  ["c1ccc(C2(N3CCCCC3)CCCCC2)cc1", 3.63],
  ["C[C@]12N[C@H](Cc3ccccc31)c1ccccc12", 2.1],
  ["NC12CCCC1Cc1ccccc12 (configuration not stated)", -0.28],
  ["CNC12CCCCCC1Cc1ccccc12 (configuration not stated)", 0.66],
  ["CN[C@@]12CCCC[C@@H]1Cc1ccccc12.CN[C@]12CCCC[C@H]1Cc1ccccc12", 0.54],
  ["NC12CCCCC1c1ccccc1C2 (configuration not stated)", 0.3],
  ["CN[C@]12CCCC[C@H]1Cc1ccccc12", 0.33],
  ["CNC12CCC(CO)CC1Cc1ccccc12 (configuration not stated)", 0.17],
  ["CN[C@@]12CCCC[C@@H]1Cc1ccccc12", 0.43],
  ["CNC12CCCCC1c1ccccc1C2 (configuration not stated)", 0.62]
]}
